Reference source: patent US20200138827A1

Consider the following compounds; for each one, report its pEC50.
Target: WT/R232 STING protein (Homo sapiens, UniProt Q86WV6, H232R)
Sequence (Q86WV6 whole entry H232R): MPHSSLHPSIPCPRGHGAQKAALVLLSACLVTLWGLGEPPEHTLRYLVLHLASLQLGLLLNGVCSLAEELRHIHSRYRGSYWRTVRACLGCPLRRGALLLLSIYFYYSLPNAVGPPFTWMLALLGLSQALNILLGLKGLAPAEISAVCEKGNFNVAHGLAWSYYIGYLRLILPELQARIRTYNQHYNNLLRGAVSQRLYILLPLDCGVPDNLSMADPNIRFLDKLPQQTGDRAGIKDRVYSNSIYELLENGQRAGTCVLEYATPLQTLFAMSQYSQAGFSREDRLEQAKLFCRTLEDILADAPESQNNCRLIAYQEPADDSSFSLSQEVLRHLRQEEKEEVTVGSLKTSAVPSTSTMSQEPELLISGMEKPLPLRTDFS
Experiment: Luciferase reporter assay in HEK293T-hSTING-Luciferase cells, WT/R232
Settings: 20 hr stimulation, read-out: R232 Activity (EC50 range)
From the text: • a) Stable STING expressing cells—Stable HEK293T STING-expressing cell lines were generated using plasmids purchased from Invivogen, Calif., USA, that contain STING cDNA cloned into the pUNO-1 vector under hEF1-HTLV promoter and containing the Blasticidin selection cassette. […]
pEC50: −log10 of the molar value.

Could you report pEC50 for every entry in the following list?
1. CC1Sc2ccc(C(=O)NCc3ccco3)cc2N(Cc2cc(F)cc(F)c2)C1=O (centres unmarked)
2. O=C(NCc1n[nH]c(=O)c2ccccc12)c1ccc2c(c1)N(Cc1ccccc1)C(=O)CS2
3. Cc1cnc(CNC(=O)c2ccc3c(c2)N(Cc2ccccc2)C(=O)CS3)s1
4. O=C(NCc1c(F)cc(F)cc1F)c1ccc2c(c1)N(C(=O)c1c(F)cccc1Cl)CCS2
5. N#CCC(CNC(=O)c1ccc2c(c1)N(Cc1c(F)cccc1Cl)C(=O)CS2)c1ccccc1 (centres unmarked)
6. O=C(NCc1ccco1)c1ccc2c(c1)N(Cc1ccccc1)CC[S+]2[O-] (centres unmarked)
7. O=C(NCC(c1ccccc1)C1CCCCC1)c1ccc2c(c1)N(Cc1c(F)cccc1Cl)C(=O)CS2 (centres unmarked)
8. C=CCC1Sc2ccc(C(=O)NCc3c(F)cc(F)cc3F)cc2N(Cc2c(F)cccc2Cl)C1=O (centres unmarked)

Result block:
> 6.00
< 5.00
< 5.00
5.00 to 6.00
< 5.00
< 5.00
< 5.00
> 6.00

###

Consider the following molecules; for each one, report its EC50.
Biological target: hSTING(H232) (Homo sapiens, UniProt Q86WV6)
Sequence (Q86WV6 whole entry): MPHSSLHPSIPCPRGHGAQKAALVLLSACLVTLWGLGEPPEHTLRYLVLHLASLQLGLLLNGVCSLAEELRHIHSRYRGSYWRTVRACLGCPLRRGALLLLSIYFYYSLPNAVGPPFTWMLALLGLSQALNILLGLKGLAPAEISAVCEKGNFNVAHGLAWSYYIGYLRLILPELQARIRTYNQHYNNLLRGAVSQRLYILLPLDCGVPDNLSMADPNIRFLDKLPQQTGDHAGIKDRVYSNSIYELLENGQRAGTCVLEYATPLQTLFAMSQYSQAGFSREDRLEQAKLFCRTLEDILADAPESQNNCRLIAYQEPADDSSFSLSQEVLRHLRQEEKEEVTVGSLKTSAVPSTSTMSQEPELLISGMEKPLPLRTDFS
Experiment: Luciferase reporter assay in HEK293T-hSTING-Luciferase cells, H232 polymorph
Settings: 20 hr stimulation, read-out: H232 activity (EC50 range)

Answered examples (3):
O=C(NCc1c(F)cc(F)cc1F)c1cnc2c(c1)N(Cc1cc(F)cc(F)c1)C(=O)CS2	1000 to 10000 nM
CC1Sc2ccc(C(=O)NCc3c(F)cc(F)cc3F)cc2N(Cc2ccncc2)C1=O (stereo not shown)	1000 to 10000 nM
O=C(NCc1c(F)cc(F)cc1F)c1ccc2c(c1)N(Cc1c(F)cccc1Cl)C(=O)CS2	< 1000 nM

Let us move to another entry and its EC50.
Query block: Look up EC50 for this molecule: CC1Sc2ccc(C(=O)NCc3c(F)cc(F)cc3F)cc2N(Cc2ccccc2F)C1=O (stereo not shown)
Result block: < 1000 nM

###

Molecular target: WT/R232 STING protein (Homo sapiens, UniProt Q86WV6, H232R)
Test: Luciferase reporter assay in HEK293T-hSTING-Luciferase cells, WT/R232
Conditions: 20 hr stimulation, read-out: R232 Activity (EC50 range)
pEC50: −log10 of the molar value.
Consider the following compounds; for each one, report its pEC50.

Answered examples (3):
O=C(NCc1c(F)cc(F)cc1F)c1ccc2c(c1)N(Cc1cc(F)cc(F)c1)S(=O)(=O)CC2	> 6.00
O=C(NCc1ccco1)c1ccc2c(c1)N(Cc1cn3ccsc3n1)C(=O)CS2	< 5.00
CC1Sc2ccc(C(=O)NCc3ccc(F)cc3F)nc2N(Cc2c(F)cccc2Cl)C1=O (stereo not shown)	5.00 to 6.00

Let us move to another entry and its pEC50.
Query block: Look up pEC50 for this compound: Cc1ccc(CNC(=O)c2ccc3c(n2)N(Cc2c(F)cccc2Cl)C(=O)C(C)S3)o1 (stereo not shown)
Result block: 5.00 to 6.00

###

Target: WT/R232 STING protein (Homo sapiens, UniProt Q86WV6, H232R)
Experiment: Luciferase reporter assay in HEK293T-hSTING-Luciferase cells, WT/R232
Settings: 20 hr stimulation, read-out: R232 Activity (EC50 range)
Consider the following molecules; for each one, report its EC50.

Answered examples (3):
CC1Sc2ccc(C(=O)NCc3c(F)cc(F)cc3F)cc2N(Cc2cc(F)cc(F)c2)C1=O (stereo not shown) [Example 153]	< 1000 nM
NC(=O)CC1Sc2ccc(C(=O)NCc3ccc(F)cc3F)cc2N(Cc2cc(F)cc(F)c2)C1=O (stereo not shown) [Example 176]	> 10000 nM
O=C(NCc1c(F)cc(F)cc1F)c1cnc2c(c1)N(Cc1cc(F)cc(F)c1)C(=O)CC2 [Example 276]	1000 to 10000 nM

Let us move to another entry and its EC50.
Query block: Look up EC50 for this molecule: CC1Sc2ccc(C(=O)NCc3c(F)cc(F)cc3F)cc2N(Cc2c(F)ccc(O)c2Cl)C1=O (stereo not shown) [Example 155]
Result block: < 1000 nM

###

Molecular target: WT/R232 STING protein (Homo sapiens, UniProt Q86WV6, H232R)
Test: Luciferase reporter assay in HEK293T-hSTING-Luciferase cells, WT/R232
Details: 20 hr stimulation, read-out: R232 Activity (EC50 range)
pEC50: −log10 of the molar value.
measurementKind: pEC50

Answered examples (3):
CC1Sc2ccc(C(=O)NCc3ccccc3)nc2N(Cc2cc(F)cc(F)c2)C1=O (centres unmarked) [Example 191]	> 6.00
CC1Sc2ccc(C(=O)NCc3c(F)cc(F)cc3F)cc2N(Cc2cc(F)cc(F)c2)C1=O (centres unmarked) [Example 148]	> 6.00
O=C(NCc1ccco1)c1ccc2c(c1)N(Cc1ccc(Cl)s1)C(=O)CS2 [Example 95]	< 5.00

Could you report pEC50 for every entry in the following list?
1. O=C(NCc1ccco1)c1ccc2c(c1)N(Cc1c(F)cccc1Cl)C(=O)C[S+]2[O-] (centres unmarked) [Example 245]
2. O=C(NCc1ccccc1)c1ccc2c(c1)N(Cc1c(F)cccc1Cl)C(=O)CS2 [Example 126]
3. O=C(NCc1ccco1)c1cc2c(cc1C1CC1)SCC(=O)N2Cc1ccccc1F [Example 229]
4. O=C(NCc1ccco1)c1ccc2c(c1)N(C(=O)c1ccccc1F)CCO2 [Example 263]
5. Nc1ccc(CNC(=O)c2ccc3c(c2)N(Cc2ccccc2)C(=O)CS3)cn1 [Example 52]

Result block:
1: < 5.00; 2: 5.00 to 6.00; 3: < 5.00; 4: < 5.00; 5: < 5.00

Could you report pEC50 for every entry in the following list?
1. O=C(NCc1ccco1)c1ccc2c(c1)N(Cc1ccc(Cl)cc1)CCS2 [Example 250]
2. O=C(NCc1cccnc1)c1ccc2c(c1)N(Cc1c(F)cccc1Cl)C(=O)CS2 [Example 109]
3. CC1(C)Sc2ccc(C(=O)NCC3CCCCC3)cc2N(Cc2ccccc2F)C1=O [Example 136]
4. O=C(NCc1c(F)cccc1F)c1ccc2c(c1)N(Cc1c(F)cccc1Cl)C(=O)CS2 [Example 31]
5. O=C(NCc1ccco1)c1ccc2c(c1)N(Cc1ccncc1)C(=O)CS2 [Example 28]

Result block:
1: < 5.00; 2: < 5.00; 3: 5.00 to 6.00; 4: > 6.00; 5: < 5.00

Could you report pEC50 for every entry in the following list?
1. O=C(NCc1cc2ccccc2o1)c1ccc2c(n1)N(Cc1cc(F)cc(F)c1)C(=O)CS2 [Example 183]
2. O=C(NCc1ccccc1-c1ccccc1)c1ccc2c(c1)N(Cc1c(F)cccc1Cl)C(=O)CS2 [Example 46]
3. CC1Sc2ncc(C(=O)NCc3ccn(C)n3)cc2N(Cc2cc(F)cc(F)c2)C1=O (centres unmarked) [Example 215]
4. O=C(NCc1ccco1)c1ccc2c(c1)N(CCS(=O)(=O)c1ccccc1)C(=O)CS2 [Example 103]

Result block:
5.00 to 6.00
< 5.00
< 5.00
< 5.00

###

Target: WT/R232 STING protein (Homo sapiens, UniProt Q86WV6, H232R)
Assay: Luciferase reporter assay in HEK293T-hSTING-Luciferase cells, WT/R232
Conditions: 20 hr stimulation, read-out: R232 Activity (EC50 range)
pEC50: −log10 of the molar value.
measurementKind: pEC50

Answered examples (4):
Cc1cc(CN2C(=O)C(C)Sc3ccc(C(=O)NCc4c(F)cc(F)cc4F)cc32)on1 (centres unmarked) [Example 158]	> 6.00
O=C(NCc1cc2ccccc2o1)c1cnc2c(c1)N(Cc1c(F)cccc1Cl)C(=O)CS2 [Example 197]	5.00 to 6.00
O=C(NCc1ccco1)c1ccc2c(c1)N(CC(O)c1ccccc1)CCS2 (centres unmarked) [Example 248]	< 5.00
O=C(O)CC1Sc2ccc(C(=O)NCc3ccco3)cc2N(Cc2ccccc2F)C1=O (centres unmarked) [Example 175]	< 5.00

Could you report pEC50 for every entry in the following list?
1. CC1Sc2ccc(C(=O)NCc3c(F)cc(F)cc3F)cc2N(Cc2c(F)cccc2Cl)C1=O (centres unmarked) [Example 138]
2. O=C(NCC1CC1)c1ccc2c(c1)N(Cc1ccccc1F)C(=O)CS2 [Example 20]
3. CC1Sc2ncc(C(=O)NCc3cccnn3)cc2N(Cc2cc(F)cc(F)c2)C1=O (centres unmarked) [Example 214]
4. CC1Cc2ccc(C(=O)NCc3c(F)cc(F)cc3F)cc2N(Cc2cc(F)cc(F)c2)S1(=O)=O (centres unmarked) [Example 285]

Result block:
["> 6.00", "< 5.00", "< 5.00", "5.00 to 6.00"]
